- measured target: Mu-type opioid receptor (Homo sapiens, UniProt P35372)
- Sequence (P35372 whole entry, the tested form may be a part): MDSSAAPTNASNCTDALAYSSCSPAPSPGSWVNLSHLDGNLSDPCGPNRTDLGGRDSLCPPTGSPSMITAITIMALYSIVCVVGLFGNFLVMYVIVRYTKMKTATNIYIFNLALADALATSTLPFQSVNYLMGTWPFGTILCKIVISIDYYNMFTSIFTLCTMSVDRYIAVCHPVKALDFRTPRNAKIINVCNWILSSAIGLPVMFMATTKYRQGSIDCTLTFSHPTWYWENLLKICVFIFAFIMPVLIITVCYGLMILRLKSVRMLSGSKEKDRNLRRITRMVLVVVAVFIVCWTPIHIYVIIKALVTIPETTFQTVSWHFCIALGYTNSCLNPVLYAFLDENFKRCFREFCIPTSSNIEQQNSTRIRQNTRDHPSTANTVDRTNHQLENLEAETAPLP
- experiment summary: Agonist activity at human MOR receptor expressed in HTLA cells co-expressing TEV-fused-beta-arrestin2 assessed as induction of beta-arrestin2 recruitment by Tango assay
- Format: functional, cell-based
recorded endpoint: EC50
Please provide the amount together with its unit, number first.

Before answering, review these 3 worked examples.
CC[C@@H]1CN2CC[C@@]3(O)C(=Nc4cccc(-c5ccoc5)c43)[C@@H]2C[C@@H]1/C(=C\OC)C(=O)OC 11 µM
CC[C@@H]1CN2CC[C@@]3(O)C(=Nc4cccc(-c5ccccc5)c43)[C@@H]2C[C@@H]1/C(=C\OC)C(=O)OC 19.2 µM
CC[C@@H]1CN2CC[C@@]3(O)C(=Nc4ccc(-c5ccoc5)c(OC)c43)[C@@H]2C[C@@H]1/C(=C\OC)C(=O)OC 8.04 µM

Ask: So what's the measured EC50 for this one? CC[C@@H]1CN2CC[C@@]3(O)C(=Nc4cccc(C)c43)[C@@H]2C[C@@H]1/C(=C\OC)C(=O)OC
Result: 10.4 µM

----------
- measured target: UniProt:P35372
recorded endpoint: pKi
# reply with the number alone; pKi is -log10 of concentration in mol/L

Ask: Name the reported pKi value associated with the compound CC[C@@H]1CN2CC[C@@]3(O)C(=Nc4cccc(-c5ccoc5)c43)[C@@H]2C[C@@H]1/C(=C\OC)C(=O)OC
Result: 8.22

----------
- measured target: UniProtKB P35372
- experiment summary: Agonist activity at human MOR expressed in HEK293T cells assessed as inhibition of forskolin-stimulated cAMP accumulation incubated for 30 mins by Glo-sensor cAMP assay
- Type: functional, cell-based
recorded endpoint: EC50 (nM)
API: value field is a number in nM; no unit string.

CC[C@@H]1CN2CC[C@@]3(O)C(=Nc4c(-c5ccoc5)ccc(OC)c43)[C@@H]2C[C@@H]1/C(=C\OC)C(=O)OC 1560
CC[C@@H]1CN2CC[C@@]3(O)C(=Nc4cccc(C)c43)[C@@H]2C[C@@H]1/C(=C\OC)C(=O)OC 5.25

Ask: Consider the molecule CC[C@@H]1CN2CC[C@@]3(O)C(=Nc4cccc(-c5ccoc5)c43)[C@@H]2C[C@@H]1/C(=C\OC)C(=O)OC and give its measured EC50.
Result: 7.25

----------
- measured target: Mu-type opioid receptor (Homo sapiens)
- experiment summary: Agonist activity at human MOR expressed in HEK-293T cells assessed as inhibition of forskolin-stimulated cAMP accumulation incubated for 30 mins by Glo-sensor cAMP assay relative to DAMGO
- Type: functional, cell-based
- conditions: HEK293T, filed as agonist
recorded endpoint: Emax (%)
Return type: number; implicit unit %.

// below: answered molecules
CC[C@@H]1CN2CC[C@@]3(O)C(=Nc4c(-c5ccoc5)ccc(OC)c43)[C@@H]2C[C@@H]1/C(=C\OC)C(=O)OC 61.8
CC[C@@H]1CN2CCc3c([nH]c4cccc(OC)c34)[C@@H]2C[C@@H]1/C(=C\OC)C(=O)OC 84.7

Okay, now this molecule:
Ask: Any idea what Emax was measured for CC[C@@H]1CN2CC[C@@]3(O)C(=Nc4ccc(C)c(OC)c43)[C@@H]2C[C@@H]1/C(=C\OC)C(=O)OC ?
Result: 9.58

----------
- measured target: UniProt P35372
- experiment summary: Agonist activity at human MOR expressed in HEK293T cells assessed as inhibition of forskolin-stimulated cAMP accumulation incubated for 30 mins by Glo-sensor cAMP assay
- Format: functional, cell-based
Listed here: items and their measured EC50.
Give just the numeric value; nM need not be written.

Ask: So what's the measured EC50 for this one? CC[C@@H]1CN2CCc3c([nH]c4c(-c5ccoc5)ccc(OC)c34)[C@@H]2C[C@@H]1/C(=C\OC)C(=O)OC
Result: 186

Ask: What about this molecule? CC[C@@H]1CN2CCc3c([nH]c4ccc(C)c(OC)c34)[C@@H]2C[C@@H]1/C(=C\OC)C(=O)OC
Result: 370

Ask: CC[C@@H]1CN2CCc3c([nH]c4c(-c5ccccc5)ccc(OC)c34)[C@@H]2C[C@@H]1/C(=C\OC)C(=O)OC ?
Result: 1110

Ask: Also CC[C@@H]1CN2CCc3c([nH]c4cccc(-c5ccoc5)c34)[C@@H]2C[C@@H]1/C(=C\OC)C(=O)OC , if possible.
Result: 93.7

Ask: Same lookup for CC[C@@H]1CN2CC[C@@]3(O)C(=Nc4c(C)ccc(OC)c43)[C@@H]2C[C@@H]1/C(=C\OC)C(=O)OC , please.
Result: 11.2

----------
- measured target: Mu-type opioid receptor (Homo sapiens, UniProt P35372)
- experiment summary: Agonist activity at human MOR expressed in HEK-293T cells assessed as inhibition of forskolin-stimulated cAMP accumulation incubated for 30 mins by Glo-sensor cAMP assay relative to DAMGO
- Assay type: functional, cell-based
- conditions: HEK293T, filed as agonist
The compounds listed here are annotated with their Emax.
Please reply with the bare figure in % and do not write the unit itself.

Recorded results for 3 compounds are shown here.
CC[C@@H]1CN2CCc3c([nH]c4cccc(-c5ccoc5)c34)[C@@H]2C[C@@H]1/C(=C\OC)C(=O)OC 70.2
CC[C@@H]1CN2CC[C@@]3(O)C(=Nc4ccc(-c5ccoc5)c(OC)c43)[C@@H]2C[C@@H]1/C(=C\OC)C(=O)OC 100
CC[C@@H]1CN2CCc3c([nH]c4c(-c5ccccc5)ccc(OC)c34)[C@@H]2C[C@@H]1/C(=C\OC)C(=O)OC 50.4

Read the next record carefully.
Ask: Item CC[C@@H]1CN2CC[C@@]3(O)C(=Nc4cccc(OC)c43)[C@@H]2C[C@@H]1/C(=C\OC)C(=O)OC has what recorded Emax?
Result: 95.5
